Cited source for all entries: patent US20100130424A1

- TARGET_ENTITY: T1, human CRH receptor type 2 (human, UniProt Q13324 1-411)
- T1 sequence (looked up): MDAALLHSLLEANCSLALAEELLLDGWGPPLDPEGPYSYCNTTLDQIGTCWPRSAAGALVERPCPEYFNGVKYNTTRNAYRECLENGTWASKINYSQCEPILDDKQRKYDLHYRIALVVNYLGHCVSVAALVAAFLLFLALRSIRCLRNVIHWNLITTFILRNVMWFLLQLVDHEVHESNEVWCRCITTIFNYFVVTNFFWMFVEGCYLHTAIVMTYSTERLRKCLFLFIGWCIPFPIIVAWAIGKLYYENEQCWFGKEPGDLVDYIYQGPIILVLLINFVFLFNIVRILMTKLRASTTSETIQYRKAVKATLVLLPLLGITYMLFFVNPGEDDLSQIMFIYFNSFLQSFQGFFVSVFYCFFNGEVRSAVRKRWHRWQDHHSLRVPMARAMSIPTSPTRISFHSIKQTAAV
- ASSAY_METHOD_TEXT: cell-based or functional assay
No end group written: not given here.
# Lookup of reported pA50, cAMP keyed by entry

Example binders with recorded pA50, cAMP:
BINDER | RESULT
TKFTLSLDVPTNIMNLLFNIAKAKNLRAQAAANAHLMACI-NH2 [Cys-variant CRHR2 peptide agonist, SEQ ID NO: 40] | 9.08 -log M
TKFTLSLDVPTNIMNLLFNIAKAKNLRACAAANAHLMAQI (NES-PEG (about 20 kDa) on Cys 29; C-terminal amide) [Pegylated Cys-variant CRHR2 peptide agonist (NES linker, PEG about 20 kDa), SEQ ID NO: 83] | 7.91 -log M
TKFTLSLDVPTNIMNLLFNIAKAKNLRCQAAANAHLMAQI (NES-PEG (about 20 kDa; MW20000) on Cys 28; C-terminal amide) [Pegylated Cys-variant CRHR2 peptide agonist (NES linker, PEG about 20 kDa), SEQ ID NO: 82] | 8.4 -log M
TKCTLSLDVPTNIMNLLFNIAKAKNLRAQAAANAHLMAQI-NH2 [Cys-variant CRHR2 peptide agonist, SEQ ID NO: 4] | 8.65 -log M

Now consider the entry below.
// pA50, cAMP lookup, key: TKFTLSLDVPTNIMNLLFNIAKAKCLRAQAAANAHLMAQI-NH2 [Cys-variant CRHR2 peptide agonist, SEQ ID NO: 26]
9.44 -log M
